tested on: MOLT-4 leukemia; assay: NCI-60 one-dose screen, 48 h (100 = growth as untreated, 0 = no growth, -100 = all killed); conditions: 10 µM unless noted
The panel holds about 83,000 compounds, 20% with a hit somewhere; the sample as a whole holds those more often.
Quick rule for you: growth at 30% or higher means 1.0, lower means 0.0.

# count of solved cases: 3
# compound, target-desc, answer-label
records = [
    ("Cc1ccc(C(=O)NN)cc1", "MOLT-4 leukemia", 1.0),
    ("O=[N+]([O-])c1ccc(-c2ncc(-c3ccc(O)cc3O)[nH]2)cc1", "MOLT-4 leukemia", 1.0),
    ("CC1=C(C)C(=O)C(C(C)C2=C(C)C(=O)C(C)=C(C)C2=O)=C(C)C1=O", "MOLT-4 leukemia", 1.0),
]

input: Is reported growth greater than or equal to 30% here: CC(O)c1cc[cH-]c1.[Fe+2].c1cc[cH-]c1 (stereo unspecified)
output: 1.0

input: Is reported growth greater than or equal to 30% here: CC(C)(C)C(=O)CCCCCCCC/C=C/CCCC(O)c1ccco1 (stereo unspecified)
output: 1.0

input: Is reported growth greater than or equal to 30% here: "COc1ccc(Oc2[nH]n(C3=Nc4ccccc4Sc4ccccc43)c(=O)c2C#N)cc1"
output: 1.0

input: Is reported growth greater than or equal to 30% here: "COc1ccc2cn3c4ccc(O)cc4[nH]c(=O)c3c2c1"
output: 0.0

input: Is reported growth greater than or equal to 30% here: CC(=O)N1N=C(c2ccc(Cl)cc2)CC1c1cn(-c2ccccc2)nc1-c1ccc([N+](=O)[O-])cc1 (stereo unspecified)
output: 1.0

input: Is reported growth greater than or equal to 30% here: "N=C(c1ccccc1)N(Cc1ccccc1)Cc1ccccc1"
output: 1.0

input: Is reported growth greater than or equal to 30% here: "Nc1nc2cc(O)ccc2n2cc3c(F)cccc3c12"
output: 0.0

input: Is reported growth greater than or equal to 30% here: "CC(=N\N=C(N)N)/C(=N/N=C(N)N)c1ccccc1"
output: 1.0

----------
Listing: growth of selected compounds
system: SF-295 CNS; test: NCI-60 one-dose screen, 48 h (100 = growth as untreated, 0 = no growth, -100 = all killed); details: 10 µM unless noted
Compounds without any hit were thinned out: in the full panel of roughly 83,000, 20% have a hit. Activity calls are given as the source filed them. How the source made its calls: active means growth percent below 10; inactive means the rest.

# compound, measured-quantity, test-value
records = [
    ("COC(=O)/C=C1/CCCCC1(C)C(=O)OC (stereo unspecified)", "growth", "120% (inactive)"),
    ("CC(=O)Nc1nc(C)c(C(=O)NN)s1", "growth", "133% (inactive)"),
    ("N=C(c1ccccc1)N(Cc1ccccc1)Cc1ccccc1", "growth", "59.2% (inactive)"),
    ("CC(C)CCCCCOC(=O)c1ccccc1SSc1ccccc1C(=O)OCCCCCC(C)C", "growth", "105% (inactive)"),
    ("CCCNC(=O)Oc1ccc(/C(=C(/C)Cc2ccc(OC)cc2)c2ccc(OCCN3CCCC3)cc2)cc1", "growth", "68.7% (inactive)"),
    ("Cc1ccc(C(C)C)c(OCc2ccc(C(=O)N/N=C/c3cccc(O)c3O)cc2)c1", "growth", "36.1% (inactive)"),
    ("COc1ccc(Nc2c3ccccc3nc3ccccc23)cc1", "growth", "15.9% (inactive)"),
    ("COc1ccc2oc(=O)cc(CN3C(=O)S/C(=C\\c4ccc(Cl)cc4)C3=O)c2c1", "growth", "92% (inactive)"),
    ("COc1cc(Cn2ccc3c2-c2oncc2CC3)cc(OC)c1", "growth", "24.2% (inactive)"),
    ("CCOC(=O)CCCCCCCCC(=O)OCC", "growth", "103% (inactive)"),
]

input: Give growth (SF-295 CNS) of the following compound: CC([C@H]1CCC2C3CCC4C[C@@H](N)CC[C@]4(C)C3CC[C@@]21C)N(C)C (stereo partly specified)
output: 76.6% (inactive)
